Molecular target: PI3K-alpha enzyme (Homo sapiens)
Sequence (P42336 whole entry): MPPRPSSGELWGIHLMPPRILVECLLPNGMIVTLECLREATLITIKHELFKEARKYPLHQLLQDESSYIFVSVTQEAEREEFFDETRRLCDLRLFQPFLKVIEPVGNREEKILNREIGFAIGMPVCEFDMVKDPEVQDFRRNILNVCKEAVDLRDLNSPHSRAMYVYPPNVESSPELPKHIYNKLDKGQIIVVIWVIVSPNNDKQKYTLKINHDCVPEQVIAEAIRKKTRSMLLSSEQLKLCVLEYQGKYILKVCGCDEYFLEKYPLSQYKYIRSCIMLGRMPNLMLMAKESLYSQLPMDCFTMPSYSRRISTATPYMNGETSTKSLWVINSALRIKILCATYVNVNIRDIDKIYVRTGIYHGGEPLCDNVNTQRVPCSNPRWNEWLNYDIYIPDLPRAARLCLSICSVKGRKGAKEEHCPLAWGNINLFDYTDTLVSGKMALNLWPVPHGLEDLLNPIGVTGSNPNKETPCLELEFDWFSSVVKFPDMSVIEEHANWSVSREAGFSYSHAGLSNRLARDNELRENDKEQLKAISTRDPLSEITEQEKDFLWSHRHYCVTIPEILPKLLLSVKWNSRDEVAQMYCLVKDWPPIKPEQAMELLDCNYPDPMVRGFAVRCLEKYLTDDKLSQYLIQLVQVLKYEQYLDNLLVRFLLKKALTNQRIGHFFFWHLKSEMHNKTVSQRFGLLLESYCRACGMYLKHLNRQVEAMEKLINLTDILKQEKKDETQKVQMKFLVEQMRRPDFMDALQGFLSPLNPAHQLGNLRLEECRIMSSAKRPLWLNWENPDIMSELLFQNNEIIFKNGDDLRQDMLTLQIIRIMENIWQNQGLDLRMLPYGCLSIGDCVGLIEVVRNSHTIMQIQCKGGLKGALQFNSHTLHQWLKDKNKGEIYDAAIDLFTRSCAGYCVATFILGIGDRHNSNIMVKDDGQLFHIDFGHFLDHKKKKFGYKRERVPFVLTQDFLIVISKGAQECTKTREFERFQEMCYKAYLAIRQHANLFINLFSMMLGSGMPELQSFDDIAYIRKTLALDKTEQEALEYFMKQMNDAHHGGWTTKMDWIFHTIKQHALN
Sequence (P27986 whole entry partner): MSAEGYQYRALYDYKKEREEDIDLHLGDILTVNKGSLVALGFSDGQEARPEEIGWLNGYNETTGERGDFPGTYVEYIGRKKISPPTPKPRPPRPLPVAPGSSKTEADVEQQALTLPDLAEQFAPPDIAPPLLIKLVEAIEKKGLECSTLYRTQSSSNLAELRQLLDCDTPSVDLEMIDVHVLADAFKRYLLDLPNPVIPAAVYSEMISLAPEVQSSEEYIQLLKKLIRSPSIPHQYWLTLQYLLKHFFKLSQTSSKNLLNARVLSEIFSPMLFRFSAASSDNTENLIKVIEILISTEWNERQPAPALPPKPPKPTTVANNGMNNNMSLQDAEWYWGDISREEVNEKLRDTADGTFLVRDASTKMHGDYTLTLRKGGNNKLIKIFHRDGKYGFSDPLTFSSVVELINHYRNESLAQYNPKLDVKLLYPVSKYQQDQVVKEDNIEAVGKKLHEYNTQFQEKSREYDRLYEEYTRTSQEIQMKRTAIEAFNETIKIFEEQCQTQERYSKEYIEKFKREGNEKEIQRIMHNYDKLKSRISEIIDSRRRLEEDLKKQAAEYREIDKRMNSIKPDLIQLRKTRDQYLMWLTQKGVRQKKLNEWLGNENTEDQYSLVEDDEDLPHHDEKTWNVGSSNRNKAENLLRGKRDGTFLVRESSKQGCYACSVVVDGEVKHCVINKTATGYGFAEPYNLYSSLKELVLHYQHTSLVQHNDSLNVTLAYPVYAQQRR
reportedMetric: pIC50
Answer as the number alone; pIC50 is minus log10 of concentration in mol/L.

Item `O=C(Nc1ccc(CO)cc1)Nc1ccc(-c2nc(N3CCOCC3)c3[nH]cnc3n2)cc1` : provide pIC50
7.65
